# tested_target: UniProtKB P29274
# Sequence (P29274 whole entry): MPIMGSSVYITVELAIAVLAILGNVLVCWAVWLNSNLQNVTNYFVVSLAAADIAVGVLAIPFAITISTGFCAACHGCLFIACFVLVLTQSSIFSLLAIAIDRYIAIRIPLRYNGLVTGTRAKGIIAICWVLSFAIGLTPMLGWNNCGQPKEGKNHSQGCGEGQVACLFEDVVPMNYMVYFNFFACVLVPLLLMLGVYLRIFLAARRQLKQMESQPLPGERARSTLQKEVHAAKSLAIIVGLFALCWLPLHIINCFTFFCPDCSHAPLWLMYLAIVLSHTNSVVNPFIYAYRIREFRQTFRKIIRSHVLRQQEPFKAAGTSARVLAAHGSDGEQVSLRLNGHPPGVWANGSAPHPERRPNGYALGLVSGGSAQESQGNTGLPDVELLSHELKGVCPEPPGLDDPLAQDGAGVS
# test_name: cAMP assay in 293A cells stably expressing the adenosine A2A receptor (CGS21680 stimulation, HTRF)
# Assay type: cell-based
# Set-up: expressed in transfected cells; host or cells: 293A cells (Invitrogen, Cat# R705-07) infected with A2A-expressing lentivirus (custom packaged by Biosettia), puromycin selected
# measurement_context: 293A-A2AR cells, 0.1% BSA, 8 nM CGS; values separated by / are repeat determinations; read-out: cAMP (nM) 0.1% BSA, 8 nM CGS
measured_metric: log10(IC50) (log10 of the value in nM)
Base-10 log of IC50, unit nM.

[
  {
    "smi": "COC(=O)N1CCC(COc2nc(N)nc(-c3ccc(F)cc3)c2-c2cc(C)nc(C(F)F)c2)CC1",
    "measured_metric": "log10(IC50)",
    "observed_measurement": 1.63
  },
  {
    "smi": "COCCOc1ccc(N2CCN(CCOc3nc(N)nc(-c4ccc(F)cc4)c3-c3cc(C)nc(C(F)F)c3)CC2)cc1",
    "measured_metric": "log10(IC50)",
    "observed_measurement": -0.17
  },
  {
    "smi": "CNS(=O)(=O)NCCOc1nc(N)nc(-c2ccc(F)cc2)c1-c1cc(C)nc(C(F)F)c1",
    "measured_metric": "log10(IC50)",
    "observed_measurement": 1.00
  },
  {
    "smi": "Cc1cc(-c2c(OCCc3ccc(N4CCN(C)CC4)cc3)nc(N)nc2-c2ccc(F)cc2)cc(C(F)F)n1",
    "measured_metric": "log10(IC50)",
    "observed_measurement": 0.23
  },
  {
    "smi": "Cc1cc(-c2c(OCCCN3CCOCC3)nc(N)nc2-c2ccc(F)cc2)cc(C(F)F)n1",
    "measured_metric": "log10(IC50)",
    "observed_measurement": 0.81
  }
]

// moving on: another record for log10(IC50)
response.value for Cc1cc(-c2c(OCCc3ccc(NS(C)(=O)=O)cc3)nc(N)nc2-c2ccc(F)cc2)cc(C(F)F)n1 (field: log10(IC50)) = 0.76
